target: human α1G T-type channels (Homo sapiens); test: T-type calcium channel block, whole cell patch clamp, α1G; conditions: HEK cells stably expressing human α1G; mainly non-inactivated protocol; values above 10,000 nM represented as 10000
Sequence (O43497 whole entry): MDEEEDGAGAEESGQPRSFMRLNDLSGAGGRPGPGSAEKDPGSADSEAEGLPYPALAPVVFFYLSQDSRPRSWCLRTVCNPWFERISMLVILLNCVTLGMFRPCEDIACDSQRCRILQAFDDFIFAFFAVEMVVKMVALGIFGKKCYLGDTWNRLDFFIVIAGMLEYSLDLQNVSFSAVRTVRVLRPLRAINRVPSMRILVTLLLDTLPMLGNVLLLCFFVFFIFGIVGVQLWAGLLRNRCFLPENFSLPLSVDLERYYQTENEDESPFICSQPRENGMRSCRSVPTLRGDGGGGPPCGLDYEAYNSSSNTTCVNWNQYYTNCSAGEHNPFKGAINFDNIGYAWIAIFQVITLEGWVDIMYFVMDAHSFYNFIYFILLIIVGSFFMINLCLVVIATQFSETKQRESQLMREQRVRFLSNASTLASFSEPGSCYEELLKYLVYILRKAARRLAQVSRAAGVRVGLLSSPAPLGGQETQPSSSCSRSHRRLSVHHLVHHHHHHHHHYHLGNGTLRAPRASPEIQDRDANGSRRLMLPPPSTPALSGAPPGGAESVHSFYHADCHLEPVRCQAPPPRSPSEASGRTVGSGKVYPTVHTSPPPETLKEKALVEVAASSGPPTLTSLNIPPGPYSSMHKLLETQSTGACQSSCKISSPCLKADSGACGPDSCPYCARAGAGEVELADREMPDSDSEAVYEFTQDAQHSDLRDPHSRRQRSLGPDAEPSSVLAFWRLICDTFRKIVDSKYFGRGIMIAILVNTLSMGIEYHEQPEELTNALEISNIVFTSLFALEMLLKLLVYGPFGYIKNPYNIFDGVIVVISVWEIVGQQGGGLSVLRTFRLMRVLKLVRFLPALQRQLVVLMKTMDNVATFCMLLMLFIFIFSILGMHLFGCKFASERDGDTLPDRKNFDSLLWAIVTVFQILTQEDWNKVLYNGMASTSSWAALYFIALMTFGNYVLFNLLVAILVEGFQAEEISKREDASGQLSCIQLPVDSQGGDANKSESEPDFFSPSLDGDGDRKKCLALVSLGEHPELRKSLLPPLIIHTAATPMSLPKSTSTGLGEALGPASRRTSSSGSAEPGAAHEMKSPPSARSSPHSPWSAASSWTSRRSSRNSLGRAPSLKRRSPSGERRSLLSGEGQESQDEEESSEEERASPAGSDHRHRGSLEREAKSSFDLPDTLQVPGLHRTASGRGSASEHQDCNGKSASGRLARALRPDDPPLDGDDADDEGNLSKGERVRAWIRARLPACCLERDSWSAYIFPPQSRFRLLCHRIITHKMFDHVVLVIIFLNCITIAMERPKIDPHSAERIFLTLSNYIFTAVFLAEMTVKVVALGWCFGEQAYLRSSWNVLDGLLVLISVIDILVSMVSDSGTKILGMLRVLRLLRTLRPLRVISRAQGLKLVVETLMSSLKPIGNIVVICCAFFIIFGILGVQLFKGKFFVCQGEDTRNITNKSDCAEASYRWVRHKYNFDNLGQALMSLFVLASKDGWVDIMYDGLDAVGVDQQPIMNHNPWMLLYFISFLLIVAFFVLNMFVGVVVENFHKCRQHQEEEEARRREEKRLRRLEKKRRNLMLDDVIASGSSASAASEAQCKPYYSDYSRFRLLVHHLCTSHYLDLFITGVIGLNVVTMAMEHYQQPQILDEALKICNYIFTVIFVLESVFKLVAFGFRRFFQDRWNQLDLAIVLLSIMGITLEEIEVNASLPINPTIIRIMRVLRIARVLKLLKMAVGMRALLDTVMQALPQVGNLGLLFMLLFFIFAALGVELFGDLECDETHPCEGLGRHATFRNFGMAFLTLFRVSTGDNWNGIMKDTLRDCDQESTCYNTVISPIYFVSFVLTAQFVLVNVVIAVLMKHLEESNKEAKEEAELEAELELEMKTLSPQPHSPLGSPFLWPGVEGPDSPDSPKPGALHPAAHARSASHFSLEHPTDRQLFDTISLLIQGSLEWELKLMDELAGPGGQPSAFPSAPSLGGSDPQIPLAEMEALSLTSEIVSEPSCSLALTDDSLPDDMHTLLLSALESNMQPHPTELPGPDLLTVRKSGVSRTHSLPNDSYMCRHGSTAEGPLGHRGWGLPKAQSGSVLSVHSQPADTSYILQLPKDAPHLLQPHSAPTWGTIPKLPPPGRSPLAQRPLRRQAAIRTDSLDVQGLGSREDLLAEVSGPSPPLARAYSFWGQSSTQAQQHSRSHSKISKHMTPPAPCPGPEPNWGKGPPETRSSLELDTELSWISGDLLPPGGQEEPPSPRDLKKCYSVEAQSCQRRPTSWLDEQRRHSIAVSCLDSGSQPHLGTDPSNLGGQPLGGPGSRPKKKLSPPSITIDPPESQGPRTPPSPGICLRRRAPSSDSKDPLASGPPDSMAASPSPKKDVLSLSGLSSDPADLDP
The reader will find reported IC50 values listed item by item below.

| Molecule | Unit Abbrev | Qualifier Sign | IC50 |
| --- | --- | --- | --- |
| CS(=O)(=O)c1cc(C(F)(F)F)cnc1C(=O)NC[C@H]1C[C@H](S(=O)(=O)c2cccc(C(F)(F)F)c2)C1 | nM | = | 520 |
| O=S(=O)(N[C@H]1CC[C@@](F)(S(=O)(=O)c2cccc(C(F)(F)F)c2)CC1)c1ccccc1C(F)(F)F | nM | = | 640 |
| O=C(NC1CCC(S(=O)(=O)c2cccc(C(F)(F)F)c2)CC1)c1cc(F)cc(Cl)c1 (centres unmarked) | nM | = | 2790 |
| O=C(N[C@H]1CC[C@H](CS(=O)(=O)c2cccc(C(F)(F)F)c2)CC1)c1cc(C(F)(F)F)n[nH]1 | nM | > | 10000 |
| CC(C)S(=O)(=O)c1cc(C(F)(F)F)cnc1C(=O)NCCC(C)(C)S(=O)(=O)c1cccc(C(F)(F)F)c1 | nM | = | 80 |
| CC(C)(CNC(=O)c1ccc(Cl)c(Cl)c1)S(=O)(=O)c1cccc(C(F)(F)F)c1 | nM | = | 900 |
| O=C(N[C@H]1CC[C@@H](S(=O)(=O)c2cccc(C(F)(F)F)c2)CC1)c1ccc(Cl)c(F)c1 | nM | = | 430 |
| CC(C)(CCNC(=O)c1ccc(Oc2ccc(Cl)cc2)cc1)S(=O)(=O)c1cc(F)cc(C(F)(F)F)c1 | nM | = | 470 |
| O=C(N[C@H]1CC[C@@](F)(S(=O)(=O)c2cccc(OC(F)(F)F)c2)CC1)c1cncc(C(F)(F)F)c1 | nM | = | 450 |
| Cn1nc(C(F)(F)F)cc1C(=O)N[C@H]1CC[C@@](F)(S(=O)(=O)c2cccc(C(F)(F)F)c2)CC1 | nM | = | 1450 |
| O=C(NC[C@H]1C[C@@H](S(=O)(=O)c2cccc(C(F)(F)F)c2)C1)c1ccc(F)c(Cl)c1 | nM | = | 1810 |
| COc1cc(F)cc(C(=O)NC2(C)CCC(F)(S(=O)(=O)c3cccc(C(F)(F)F)c3)CC2)c1 (centres unmarked) | nM | > | 10000 |
| O=C(N[C@H]1CC[C@@](F)(S(=O)(=O)c2cccc(C(F)(F)F)c2)CC1)c1nc2cc(C(F)(F)F)ccc2[nH]1 | nM | = | 2150 |
| O=C(N[C@H]1CC[C@@](F)(S(=O)(=O)c2cccc(C(F)(F)F)c2)CC1)c1cnc(C(F)(F)F)nc1 | nM | > | 10000 |

* * *

target: T-type calcium channel (Homo sapiens); test: T-type channel blocking, FLIPR data (Table 6); type: cell-based; conditions: CAv3.2, closed state, read-out: CAv3.2 IC50 Closed
Sequence (O95180 whole entry): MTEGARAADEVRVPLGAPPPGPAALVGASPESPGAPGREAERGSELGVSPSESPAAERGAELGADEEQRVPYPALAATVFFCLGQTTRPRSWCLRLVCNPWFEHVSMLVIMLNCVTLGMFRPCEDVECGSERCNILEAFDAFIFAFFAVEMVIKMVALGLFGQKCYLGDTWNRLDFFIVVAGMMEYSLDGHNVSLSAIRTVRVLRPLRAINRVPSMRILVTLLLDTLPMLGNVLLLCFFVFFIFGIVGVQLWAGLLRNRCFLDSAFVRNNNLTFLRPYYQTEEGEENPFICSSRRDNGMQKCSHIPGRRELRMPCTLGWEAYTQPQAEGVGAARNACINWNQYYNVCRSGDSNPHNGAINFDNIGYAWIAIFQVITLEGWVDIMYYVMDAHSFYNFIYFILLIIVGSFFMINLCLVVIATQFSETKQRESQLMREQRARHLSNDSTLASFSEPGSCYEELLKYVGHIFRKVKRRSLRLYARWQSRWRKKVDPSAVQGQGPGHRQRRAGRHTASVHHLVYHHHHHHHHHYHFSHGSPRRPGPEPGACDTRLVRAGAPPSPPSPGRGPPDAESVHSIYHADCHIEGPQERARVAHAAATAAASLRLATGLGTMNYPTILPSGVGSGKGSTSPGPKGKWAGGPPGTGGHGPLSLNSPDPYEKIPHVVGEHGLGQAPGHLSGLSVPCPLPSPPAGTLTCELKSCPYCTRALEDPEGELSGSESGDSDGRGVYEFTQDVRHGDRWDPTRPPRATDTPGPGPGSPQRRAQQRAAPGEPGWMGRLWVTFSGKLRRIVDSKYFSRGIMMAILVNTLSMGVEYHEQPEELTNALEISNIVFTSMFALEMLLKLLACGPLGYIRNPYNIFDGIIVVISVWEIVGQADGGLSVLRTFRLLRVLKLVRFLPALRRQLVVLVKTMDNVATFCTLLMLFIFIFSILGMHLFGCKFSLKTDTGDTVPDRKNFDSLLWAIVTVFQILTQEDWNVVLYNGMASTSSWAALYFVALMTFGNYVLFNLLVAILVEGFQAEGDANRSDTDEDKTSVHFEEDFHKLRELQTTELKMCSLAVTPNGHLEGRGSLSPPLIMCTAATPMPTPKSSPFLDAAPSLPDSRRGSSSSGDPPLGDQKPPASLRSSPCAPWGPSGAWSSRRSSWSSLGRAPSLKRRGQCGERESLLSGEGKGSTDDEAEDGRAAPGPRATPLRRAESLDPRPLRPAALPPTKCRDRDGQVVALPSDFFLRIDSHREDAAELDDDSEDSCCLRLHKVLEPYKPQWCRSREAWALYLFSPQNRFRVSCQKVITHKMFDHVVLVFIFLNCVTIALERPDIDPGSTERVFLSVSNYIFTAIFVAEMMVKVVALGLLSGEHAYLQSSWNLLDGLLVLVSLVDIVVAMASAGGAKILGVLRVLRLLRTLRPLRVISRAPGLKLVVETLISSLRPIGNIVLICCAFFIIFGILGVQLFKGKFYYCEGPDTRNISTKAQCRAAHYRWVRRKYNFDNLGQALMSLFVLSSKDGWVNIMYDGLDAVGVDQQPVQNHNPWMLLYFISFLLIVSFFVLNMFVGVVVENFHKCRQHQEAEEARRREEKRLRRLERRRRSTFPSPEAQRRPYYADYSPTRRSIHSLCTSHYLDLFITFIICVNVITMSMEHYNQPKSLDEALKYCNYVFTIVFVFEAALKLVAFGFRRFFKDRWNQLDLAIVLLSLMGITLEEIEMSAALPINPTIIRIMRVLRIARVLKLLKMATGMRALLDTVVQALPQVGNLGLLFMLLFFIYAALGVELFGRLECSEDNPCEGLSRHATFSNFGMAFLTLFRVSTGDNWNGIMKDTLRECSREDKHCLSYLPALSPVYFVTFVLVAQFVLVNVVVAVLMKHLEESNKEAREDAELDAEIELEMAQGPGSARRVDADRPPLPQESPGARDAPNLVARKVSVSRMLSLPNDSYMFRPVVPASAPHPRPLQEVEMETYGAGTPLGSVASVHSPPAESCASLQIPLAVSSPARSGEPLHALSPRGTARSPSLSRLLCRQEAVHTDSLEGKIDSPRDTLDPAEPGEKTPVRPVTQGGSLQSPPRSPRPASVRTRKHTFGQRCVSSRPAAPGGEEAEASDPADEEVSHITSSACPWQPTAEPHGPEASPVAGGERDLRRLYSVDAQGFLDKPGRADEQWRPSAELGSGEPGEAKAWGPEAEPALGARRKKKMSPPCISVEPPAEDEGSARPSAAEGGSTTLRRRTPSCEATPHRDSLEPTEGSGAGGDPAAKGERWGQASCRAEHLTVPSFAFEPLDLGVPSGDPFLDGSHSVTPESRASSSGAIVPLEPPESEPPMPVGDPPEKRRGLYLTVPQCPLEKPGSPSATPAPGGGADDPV
pIC50: −log10 of the molar value.

| Smiles Str | Qualifier Sign | pIC50 |
| --- | --- | --- |
| CC(C)([C@H]1C[C@H](NS(=O)(=O)c2ccc(OC(F)(F)F)cc2)C1)S(=O)(=O)c1cccc(C(F)(F)F)c1 | = | 5.58 |
| CC(C)S(=O)(=O)c1cc(C(F)(F)F)cnc1C(=O)N[C@H]1C[C@H](C(C)(C)S(=O)(=O)c2cc(F)cc(C(F)(F)F)c2)C1 | ≤ | 5.00 |
| O=C(NC[C@H]1C[C@H](S(=O)(=O)c2cccc(Cl)c2)C1)c1ccc(C(F)(F)F)cc1 | = | 5.26 |
